# assay_comment: Cytotoxicity against human SKOV3 cells assessed as reduction in cell viability by MTT assay
# Format: functional, cell-based, SK-OV-3
# study_conditions: Homo sapiens, SK-OV-3; read-out: IC50
reported_property: IC50
In your response, put the unit directly after the numeric value.

Value lookup for IC50; key = `C=CCCCCCCCCC(=O)OC[C@H](CO[C@@H]1O[C@H](CO)[C@@H](O)[C@H](O)[C@H]1O)OC(=O)CCCCCCCCC=C`
89.6 µM

Value lookup for IC50; key = `C=CCCCCCCCCC(=O)OC[C@H](CO[C@@H]1O[C@H](COC(C)=O)[C@@H](OC(C)=O)[C@H](OC(C)=O)[C@H]1OC(C)=O)OC(=O)CCCCCCCCC=C`
29.4 µM

Value lookup for IC50; key = `CCCCCCCC/C=C\CCCCCCCC(=O)OC[C@H](CO[C@@H]1O[C@H](CO)[C@@H](O)[C@H](O)[C@H]1O)OC(=O)CCCCCCC/C=C\CCCCCCCC`
19.1 µM

Value lookup for IC50; key = `CCCCCCCCCCCC(=O)OC[C@H](CO[C@@H]1O[C@H](CO)[C@@H](O)[C@H](O)[C@H]1O)OC(=O)CCCCCCCCCCC`
44.4 µM

Value lookup for IC50; key = CCCCCCCC/C=C\CCCCCCCC(=O)O[C@H](COC(=O)CCCCCCCC1CC1CCCCCCCC)CO[C@@H]1O[C@H](CO)[C@@H](O)[C@H](O)[C@H]1O (some centres not stated)
35.6 µM

Value lookup for IC50; key = CCCCCCCCC1CC1CCCCCCCC(=O)OC[C@H](CO[C@@H]1O[C@H](CO)[C@@H](O)[C@H](O)[C@H]1O)OC(=O)CCCCCCCC1CC1CCCCCCCC (some centres not stated)
112 µM

Value lookup for IC50; key = COc1cccc2c1C(=O)c1c(O)c3c(c(O)c1C2=O)C[C@@](O)(C(=O)CO)C[C@@H]3O[C@H]1C[C@H](N)[C@H](O)[C@H](C)O1 [DOXORUBICIN]
0.7 µM
